// pKi lookup, one value per entry
Target: Bifunctional epoxide hydrolase 2 (Homo sapiens, UniProt P34913)
Sequence (P34913 whole entry): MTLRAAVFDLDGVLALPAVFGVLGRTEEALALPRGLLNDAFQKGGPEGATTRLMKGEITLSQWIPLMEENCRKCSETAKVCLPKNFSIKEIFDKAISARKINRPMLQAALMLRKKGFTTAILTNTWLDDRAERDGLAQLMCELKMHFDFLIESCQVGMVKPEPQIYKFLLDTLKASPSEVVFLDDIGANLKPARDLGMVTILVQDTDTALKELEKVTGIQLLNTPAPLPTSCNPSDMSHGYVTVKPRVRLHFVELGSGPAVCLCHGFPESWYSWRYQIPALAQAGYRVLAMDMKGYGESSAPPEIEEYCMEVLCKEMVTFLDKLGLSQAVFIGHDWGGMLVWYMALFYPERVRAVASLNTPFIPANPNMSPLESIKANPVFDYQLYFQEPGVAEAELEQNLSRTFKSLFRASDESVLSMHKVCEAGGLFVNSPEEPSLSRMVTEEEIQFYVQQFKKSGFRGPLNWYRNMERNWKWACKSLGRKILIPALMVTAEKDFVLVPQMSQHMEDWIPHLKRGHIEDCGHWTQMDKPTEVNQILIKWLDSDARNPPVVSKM
Experiment: Non-competitive inhibition of sEH (unknown origin) using PHOME as substrate assessed as formation of 6-methoxy-2-naphthaldehyde measured during 30 mins by Dixon plot analysis
// scale note: pKi = -log10(conc_M); give the bare number

Reference set, count: 2
O=C1c2cc(CO)cc(O)c2C(=O)c2c1ccc([C@]1([C@@H]3O[C@H](CO)[C@@H](O)[C@H](O)[C@H]3O)c3cccc(O)c3C(=O)c3c(O)cc(CO)cc31)c2O
4.81
C[C@@H]1O[C@@H](OCc2cc(O)c3c(c2)[C@H]([C@@H]2OC[C@@H](O)[C@H](O)[C@H]2O)c2cccc(O)c2C3=O)[C@H](O)[C@H](O)[C@H]1O
6.10

Qu. API: value(readout=pKi, system=Bifunctional epoxide hydrolase 2 (Homo sapiens, UniProt P34913)) for record O=C1c2cccc(O)c2C(=O)c2c(O)cc(CO)cc21 [ALOE-EMODIN]
Ans. 4.28
